# Target Desc: T1, His-tagged cynomolgus monkey TIGIT (Acro Biosystems #TIT-05223) (cynomolgus monkey, UniProt A0A7N9I9V4 89-209)
# T1 construct: Bought protein; also called cyno TIGIT; cynomolgus TIGIT; not shown: His tag
# T1 sequence (A0A7N9I9V4 entry or part of it): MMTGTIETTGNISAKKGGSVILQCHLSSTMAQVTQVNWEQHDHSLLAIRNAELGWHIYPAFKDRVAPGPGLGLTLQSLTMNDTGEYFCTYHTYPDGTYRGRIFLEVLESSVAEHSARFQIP
# Assay Details: SPR (Carterra LSA), scFv-Fc captured, His-TIGIT analyte
For each entry below, report its Kd value.
Record the value in nM, omitting the unit from your answer.

## Input What does the data say about its Kd? Entry: 43645p1.D7 (scFv, V domains shown) VH: EVQLLESGGGLVQPGGSLRLSCAASGFTFSRNSMSWVRQAPGKGLEWVSTINSGSSYTYYADSVKGRFTISRDNSKNTLYLQMNSLRAEDTAVYYCAKDNCNGYHCYGMDVWGLGTTVTVSS VL: QSVLTQPPSASGTPGQRVTISCSGSTSNVGDHYVHWYQQLPGTAPKLLIYKDDQRPSGVPDRFSGSKSGTSASLAISGLQSEDEADYYCSTWDNTLNGWVFGGGTKLTVL
## Output 6.27

## Input What does the data say about its Kd? Entry: 43586p1.2.G10 (scFv, V domains shown) VH: EVQLLESGGGLVQPGGSLRLSCAASGFTFDDYVMSWVRQAPGKELEWVSLINWNGDKTCYADSVKGRFTISRDNSKNTLYLQMNSLRAEDTAIYYCAKHWIVFQYGMDVWGQGTTVTVSS VL: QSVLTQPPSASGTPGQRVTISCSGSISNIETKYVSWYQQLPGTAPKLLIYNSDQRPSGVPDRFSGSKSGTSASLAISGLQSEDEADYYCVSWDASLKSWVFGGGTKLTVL
## Output 14

## Input What does the data say about its Kd? Entry: 43586p1.2.C11 (scFv, V domains shown) VH: EVQLLESGGGLVQPGGSLRLSCAASGFTFDDYVMSWVRQAPGKGLEWVSLINWNGDKTYCADSVKGRFTISRDNSKNTLYLQMNSLRAEDTAIYYCAKHWIVFQYGMDVWGQGTTVTVSS VL: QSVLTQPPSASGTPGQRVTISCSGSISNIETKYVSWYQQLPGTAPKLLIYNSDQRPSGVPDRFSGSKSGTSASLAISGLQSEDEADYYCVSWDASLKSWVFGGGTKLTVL
## Output 2.56

## Input What does the data say about its Kd? Entry: 43586p2.E08 (scFv, V domains shown) VH: EVQLLESGGDLVQPGGSLRLSCAASGFTFDDYVMSWVRQAPGKGLEWVSLINWNGDKTYYADSVKDRFTISRDNSKNTLYLQMNSLRAEDTAVYYCARHWIVFQYGLDVWGQGTTVTVSS VL: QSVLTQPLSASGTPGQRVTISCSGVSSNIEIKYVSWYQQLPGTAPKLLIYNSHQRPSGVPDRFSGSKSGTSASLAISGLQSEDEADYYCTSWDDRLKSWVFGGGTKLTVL
## Output 1.83

## Input What does the data say about its Kd? Entry: 43586p1.2.G4 (scFv, V domains shown) VH: EVQLLESGGGLVQPGGSLRLSCAASGFTFDDYVMSWVRQAPGKGLEWVSLINWNGDKTYYADSVKGRFTISRDNSKNTLYLQMNSLRAEDTAVYYCARHWIVFQYGLDVWGQGTTVTVSS VL: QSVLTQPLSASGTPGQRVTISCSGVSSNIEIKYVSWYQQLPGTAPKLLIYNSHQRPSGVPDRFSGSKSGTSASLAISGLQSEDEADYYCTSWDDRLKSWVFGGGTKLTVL
## Output 3.19

## Input What does the data say about its Kd? Entry: 43586p2.C09 (scFv, V domains shown) VH: EVQLLESGGGLVQPGGSLRLSCTASGFTFTSYAMSWVSQAPGKGLEWVAGISYDGSIKYYADSVKGRLTISRDNSKNTLYLQMNSLRAEDTAIYYCAKHLTGGTTDYYYYAMDVWGQGTTVTVSS VL: QSVLTQPPSASGTPGQRVTISCSGSTSNIGTNRYVHWYQQFPGTAPKLLIYGTDRRPSGVSDRFSGSKSGTSASLAISGLQSEDEADYYCAAWDDSLSAWVFGGGTKLTVL
## Output 2.62

## Input What does the data say about its Kd? Entry: 43586p1.1.C2 (scFv, V domains shown) VH: EVQLLESGGGLVQPGGSLRLSCAASGFTFSDYYMNWVRQAPGKGLEWVSSINWNGGTTYYADSVKGRFTISRDNSRNTLYLQMNSLRAEDTAVYYCAKDQNWNFYYGMDVWGQGTTVTVSS VL: QSVLTQPPSASGTPGQRVTISCSGGSSNIGTNYVSWYQQLPGTAPKLLLYKEDQRPSGVPDRFSGSKSGTSASLAISGLQSEDEADYYCATWDGSLRSWVFGGGTKLTVL
## Output 3.69

## Input What does the data say about its Kd? Entry: 43586p1.2.F9 (scFv, V domains shown) VH: EVQLLESGGGLVQPGGSLRLSCAASGFTFDDYVMSWVRQAPGKGLEWVSLINWNGDKTYYADSVKGRFTISRDNSKNTLYLQMNSLRAEDTAIYYCAKHWIVFQYGMDVWGRGTTVTVSS VL: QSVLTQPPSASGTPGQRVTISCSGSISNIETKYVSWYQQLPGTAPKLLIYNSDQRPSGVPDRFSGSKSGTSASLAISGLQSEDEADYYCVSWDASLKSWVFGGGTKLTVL
## Output 12.2

## Input What does the data say about its Kd? Entry: 43586p2.D05 (scFv, V domains shown) VH: EVQLLESGGGLVQPGGSLRLSCAASGFTFDDYVMSWVRQAPGKGLEWVSLINWNGDKTYYADSVKGRFTISRDNSKNTLYLQMNSLRAEDTAVYYCARHWIVFQYGLDIWGQGTTVTVSS VL: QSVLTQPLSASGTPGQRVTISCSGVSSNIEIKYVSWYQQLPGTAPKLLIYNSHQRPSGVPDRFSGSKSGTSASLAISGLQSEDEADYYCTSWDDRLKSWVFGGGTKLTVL
## Output 1.55

## Input What does the data say about its Kd? Entry: 43586p2.F02 (scFv, V domains shown) VH: EVQLLESGGGLVQPGGSLRLSCAASGFTFDDYVMSWVRQAPGKGLEWVSLINWNGDKTYYADSVKGRFTISRDNSKNTLYLQMNSLRAEDTAVYYCARHWIVLQYGLDVWGQGTTVTVSS VL: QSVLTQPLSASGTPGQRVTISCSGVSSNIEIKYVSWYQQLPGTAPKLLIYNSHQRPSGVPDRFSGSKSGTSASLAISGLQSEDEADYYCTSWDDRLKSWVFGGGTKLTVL
## Output 14.4

These data points were gathered from patent US20230265187A1.
